- TESTED_TARGET: hPPARgamma (Homo sapiens)
- Construct: Gal4-hPPARγ(LBD); Gal4 (fusion partner); expressed in transfected cells; host or cells: COS-7 (monkey kidney)
- Sequence (P37231 238-503 limits assumed): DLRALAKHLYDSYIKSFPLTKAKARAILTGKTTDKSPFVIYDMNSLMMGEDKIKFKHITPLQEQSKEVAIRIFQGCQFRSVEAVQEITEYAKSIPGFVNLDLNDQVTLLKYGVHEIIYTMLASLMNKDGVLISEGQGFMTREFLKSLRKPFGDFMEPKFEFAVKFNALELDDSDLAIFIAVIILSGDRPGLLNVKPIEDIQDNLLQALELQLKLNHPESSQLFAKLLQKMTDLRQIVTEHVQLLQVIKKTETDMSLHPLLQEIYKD
- TEST_DESCRIPTION: Gal4-hPPARgamma transactivation assay in COS-7 cells (luciferase)
- Assay type: cell-based
- CONDITIONS_USED: COS-7, maximal relative activation vs reference; read-out: Gal4-hPPARγ(LBD) TOP (% ref)
MEASURED_QUANTITY: Emax (%)

COC(c1ccc(C(F)(F)F)cc1F)C1CC1c1cc(C)c(OC(C)(C)C(=O)O)c(C)c1 (single isomer, unassigned) [Cpd 12-1] | 71
COC(c1ccccc1OC(F)(F)F)C1CC1c1cc(C)c(OC(C)(C)C(=O)O)c(C)c1 (single isomer, unassigned) [Cpd 13-1] | 72
CCCCCCOc1ccccc1C(OC)C1CC1c1cc(C)c(OC(C)(C)C(=O)O)c(C)c1 (racemic) [Cpd 18-1] | 84
COC(c1ccc(OC(F)(F)F)cc1)C1CC1c1ccc(OC(C)(C)C(=O)O)c(C2CC2)c1 (racemic) [Cpd 21-1] | 48
COC(c1ccc(C(F)(F)F)cc1)C1CC1c1cc(C)c(OC(C)(C)C(=O)O)c(C)c1 (racemic) [Cpd 4-1] | 84
CCOC(c1ccc(OC(F)(F)F)cc1)C1CC1c1cc(C)c(OC(C)(C)C(=O)O)c(C)c1 (racemic) [Cpd 10-1] | 74
CCCCOC(c1ccc(OC(F)(F)F)cc1)C1CC1c1cc(C)c(OC(C)(C)C(=O)O)c(C)c1 (single isomer, unassigned) [Cpd 5-1] | 84
COC(c1ccc(Br)cc1)C1CC1c1cc(C)c(OC(C)(C)C(=O)O)c(C)c1 (racemic) [Cpd 1-1] | 68
COC(c1ccc(OC(F)(F)F)cc1)C1CC1c1cc(C)c(OC(C)(C)C(=O)O)c(C)c1 (centres unmarked) [Cpd 14-2-1] | 90
COC(c1ccc(OC(F)(F)F)cc1)C1CC1c1ccc(OC(C)(C)C(=O)O)c(C(C)C)c1 (single isomer, unassigned) [Cpd 15-1] | 66
COc1cc(OC(F)(F)F)ccc1C(OC)C1CC1c1cc(C)c(OC(C)(C)C(=O)O)c(C)c1 (racemic) [Cpd 17-1] | 75
COC(c1ccc(OC(F)(F)F)cc1)C1CC1c1cc(F)c(OC(C)(C)C(=O)O)c(F)c1 (racemic) [Cpd 20-1] | 67
COC(c1ccc(SC(F)(F)F)cc1)C1CC1c1cc(C)c(OC(C)(C)C(=O)O)c(C)c1 (racemic) [Cpd 9-1] | 77
COC(c1ccc(OC(F)(F)F)cc1)C1CC1c1ccc(OC(C)(C)C(=O)O)c(Br)c1 (racemic) [Cpd 19-1] | 64
